Where do these numbers come from? They come from patent US20120165319A1.

Record form. Attribute: POS Inhibition. Fill in for each entry.
- Tested on: IL-1β production, LPS-challenged mice
- protocol_details: In vivo acute assay for efficacy as anti-inflammatory agent: LPS-induced IL-1β production in mice
- Set-up: species or system mouse
- details: % inhibition of IL-β production, LPS-challenged mice, PO, 50 mg/kg (Table 3)
Return type: number; implicit unit %.

Input: Could you share which POS Inhibition value was measured for O=C[C@H](CC(=O)O)NC(=O)[C@@H]1CCCN2C(=O)CCN(NC(=O)c3ccccc3)C(=O)N12 ?
Output: 27

Input: Could you share which POS Inhibition value was measured for O=C[C@H](CC(=O)O)NC(=O)[C@@H]1CCCN2C(=O)CC[C@H](NC(=O)c3ccccc3)C(=O)N12 [Compound 214e] ?
Output: 75

Input: Could you share which POS Inhibition value was measured for O=C[C@H](CC(=O)O)NC(=O)[C@@H]1CCCN2C(=O)CC[C@H](NC(=O)c3ccc4nc[nH]c4c3)C(=O)N12 ?
Output: 80

Input: Could you share which POS Inhibition value was measured for O=C[C@H](CC(=O)O)NC(=O)[C@@H]1CCCN2C(=O)CC[C@H](NC(=O)c3ccc(Cl)cc3)C(=O)N12 ?
Output: 52

Input: Could you share which POS Inhibition value was measured for O=C[C@H](CC(=O)O)NC(=O)[C@@H]1CCCN2C(=O)CC[C@H](NC(=O)c3cc4ccsc4s3)C(=O)N12 ?
Output: 10

Input: Could you share which POS Inhibition value was measured for O=C[C@H](CC(=O)O)NC(=O)[C@@H]1CCCN2C(=O)CC[C@H](NC(=O)c3ccc4ncccc4c3)C(=O)N12 ?
Output: 13

====

- protocol_details: In vivo rat clearance assay
- details: plasma, iv, Table 17
measurement_kind: clearance (mL/min/kg)
Return type: number; implicit unit mL/min/kg.

Input: Could you share which clearance value was measured for COc1ccc(C(=O)NN2CCC(=O)N3CCC[C@@H](C(=O)N[C@H](C=O)CC(=O)O)N3C2=O)cc1 ?
Output: 16

Input: Could you share which clearance value was measured for CC(=O)Nc1ccc(C(=O)NN2CCC(=O)N3CCC[C@@H](C(=O)N[C@H](C=O)CC(=O)O)N3C2=O)cc1 ?
Output: 9.1

Input: Could you share which clearance value was measured for O=C[C@H](CC(=O)O)NC(=O)CN1C(=O)[C@@H](NC(=O)c2nccc3ccccc23)CN(C(=O)CO)c2ccccc21 ?
Output: 13

Input: Could you share which clearance value was measured for O=C[C@H](CC(=O)O)NC(=O)[C@@H]1CCCN2C(=O)CCN(NC(=O)c3cc4ccccc4s3)C(=O)N12 ?
Output: 34

Input: Could you share which clearance value was measured for CC(=O)N1C[C@H](NC(=O)c2cc(Cl)c(O)c(Cl)c2)C(=O)N(CC(=O)N[C@H](C=O)CC(=O)O)c2ccccc21 ?
Output: 2.9

Input: Could you share which clearance value was measured for O=C[C@H](CC(=O)O)NC(=O)CN1C(=O)[C@@H](NC(=O)c2ccccc2)CN(C(=O)CO)c2ccccc21 ?
Output: 29

Input: Could you share which clearance value was measured for COC(=O)N[C@H]1CCC(=O)N2CCC[C@@H](C(=O)N[C@@H](CC(=O)O)C(=O)COc3cccnc3)N2C1=O [Compound 283c] ?
Output: 50

Input: Could you share which clearance value was measured for COc1c(Cl)cc(C(=O)N[C@H]2CCC(=O)N3CCC[C@@H](C(=O)N[C@H](C=O)CC(=O)O)N3C2=O)cc1Cl [Compound 214m] ?
Output: 33.4

Input: Could you share which clearance value was measured for COC(=O)N[C@H]1CCC(=O)N2CCC[C@@H](C(=O)N[C@@H](CC(=O)O)C(=O)CSc3nnnn3-c3ccccc3)N2C1=O [Compound 280c] ?
Output: 86

Input: Could you share which clearance value was measured for COC(=O)N[C@H]1CCC(=O)N2CCC[C@@H](C(=O)N[C@@H](CC(=O)O)C(=O)CSc3ncccn3)N2C1=O [Compound 511c] ?
Output: 40

Input: Could you share which clearance value was measured for O=C[C@H](CC(=O)O)NC(=O)[C@@H]1CCCN2C(=O)CC[C@H](NC(=O)c3cc(Cl)c(O)c(Cl)c3)C(=O)N12 [Compound 214k] ?
Output: 22

Input: Could you share which clearance value was measured for O=C[C@H](CC(=O)O)NC(=O)[C@@H]1CCCN2C(=O)CCN(NC(=O)Cc3ccccc3)C(=O)N12 ?
Output: 28

Input: Could you share which clearance value was measured for O=C[C@H](CC(=O)O)NC(=O)[C@@H]1CCCN2C(=O)CCN(NC(=O)c3ccc(O)cc3)C(=O)N12 ?
Output: 17

Input: Could you share which clearance value was measured for COc1cccc(NC(=O)NN2CCC(=O)N3CCC[C@@H](C(=O)N[C@H](C=O)CC(=O)O)N3C2=O)c1 [Compound 265c] ?
Output: 32

Input: Could you share which clearance value was measured for CC(=O)Nc1ccc(C(=O)N[C@H]2CCC(=O)N3CCC[C@@H](C(=O)N[C@H](C=O)CC(=O)O)N3C2=O)cc1Cl [Compound 214l] ?
Output: 12

Input: Could you share which clearance value was measured for O=C[C@H](CC(=O)O)NC(=O)[C@@H]1CCCN2C(=O)CCN(NC(=O)c3cc4ccccc4[nH]3)C(=O)N12 ?
Output: 14.5

Input: Could you share which clearance value was measured for Cc1cc(C(=O)N[C@H]2CN(C(=O)CO)c3ccccc3N(CC(=O)N[C@H](C=O)CC(=O)O)C2=O)cc(C)c1O [Compound 691a] ?
Output: 9.9

Input: Could you share which clearance value was measured for O=C[C@H](CC(=O)O)NC(=O)[C@@H]1CCCN2C(=O)CCN(NC(=O)Nc3ccccc3)C(=O)N12 [Compound 265f] ?
Output: 24

Input: Could you share which clearance value was measured for CC(=O)N1C[C@H](NC(=O)c2cc(C)c(O)c(C)c2)C(=O)N(CC(=O)N[C@H](C=O)CC(=O)O)c2ccccc21 ?
Output: 33.2

Input: Could you share which clearance value was measured for O=C[C@H](CC(=O)O)NC(=O)CN1C(=O)[C@@H](NC(=O)c2cc(Cl)c(O)c(Cl)c2)CN(C(=O)CO)c2ccccc21 ?
Output: 2.75

Input: Could you share which clearance value was measured for O=C1C[C@H](NC(=O)[C@@H]2CCCN3C(=O)CC[C@H](NC(=O)c4cccc5ccccc45)C(=O)N23)C(OCc2ccccc2)O1 (stereo partly shown) [Compound 213v] ?
Output: 23

Input: Could you share which clearance value was measured for COc1ccccc1NC(=O)NN1CCC(=O)N2CCC[C@@H](C(=O)N[C@H](C=O)CC(=O)O)N2C1=O [Compound 265d] ?
Output: 35

====

- System: IL-1β, human peripheral blood mononuclear cells (PBMC)
- protocol_details: PBMC cell assay: IL-1β assay with human PBMC or enriched adherent mononuclear cells, LPS-stimulated
- Type: cell-based
- details: Homo sapiens, PBMC, * = values obtained upon reassay
measurement_kind: IC50 (µM)
Return type: number; implicit unit µM.

Input: Could you share which IC50 value was measured for O=C[C@H](CC(=O)O)NC(=O)CN1C(=O)[C@@H](NC(=O)c2ccccc2)CN(C(=O)NCc2ccccc2)c2ccccc21 [Compound 605p] ?
Output: 3.2

Input: Could you share which IC50 value was measured for O=C[C@@H](CCC(=O)O)NC(=O)[C@@H]1CCCN2C(=O)CC[C@H](NC(=O)c3ccccc3)C(=O)N12 [Compound 238e] ?
Output: 4.25

====

- system_under_test: UniProtKB P29466
- Sequence (P29466 120-297 limits assumed): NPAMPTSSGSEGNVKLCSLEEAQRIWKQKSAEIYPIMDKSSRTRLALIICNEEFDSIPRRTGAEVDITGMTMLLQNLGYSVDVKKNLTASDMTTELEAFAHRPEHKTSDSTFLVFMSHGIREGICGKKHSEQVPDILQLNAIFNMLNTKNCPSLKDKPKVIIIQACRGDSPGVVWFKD
- Sequence (P29466 317-404 limits assumed): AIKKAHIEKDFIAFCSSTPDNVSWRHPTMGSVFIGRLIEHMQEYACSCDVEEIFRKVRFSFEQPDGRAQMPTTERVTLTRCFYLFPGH
- protocol_details: Enzyme assay with UV-visible substrate (visible ICE assay, Succinyl-Tyr-Val-Ala-Asp-pNitroanilide)
- Format: biochemical
- details: Table 27
measurement_kind: pKi
Field pKi (float): negative decimal logarithm of the concentration in molar.

Input: Could you share which pKi value was measured for O=C[C@H](CC(=O)O)NC(=O)CN1C(=O)[C@@H](NC(=O)c2nccc3ccccc23)CN(C(=O)Cc2cccnc2)c2ccccc21 [Compound 734] ?
Output: 8.05

Input: Could you share which pKi value was measured for COCC(=O)N1C[C@H](NC(=O)c2cc(C)c(O)c(C)c2)C(=O)N(CC(=O)N[C@H](C=O)CC(=O)O)c2ccc(F)cc21 [Compound 689b-1] ?
Output: 8.46

Input: Could you share which pKi value was measured for O=C[C@H](CC(=O)O)NC(=O)CN1C(=O)[C@@H](NC(=O)c2nccc3ccccc23)CN(C(=O)CO)c2cc(F)ccc21 [Compound 696-1] ?
Output: 9.30

Input: Could you share which pKi value was measured for Cc1cc(C(=O)N[C@H]2CN(C(=O)COc3ccccc3)c3ccccc3N(CC(=O)N[C@H](C=O)CC(=O)O)C2=O)cc(C)c1O [Compound 721] ?
Output: 8.89

====

- protocol_details: In vivo rat clearance assay
- details: plasma, iv, 10-20 mg/kg
Record form. Attribute: clearance. Fill in for each entry.
Return type: number; implicit unit mL/min/kg.

Input: Could you share which clearance value was measured for CC(=O)Nc1cccc(C(=O)N[C@H]2CCC(=O)N3CCC[C@@H](C(=O)N[C@H](C=O)CC(=O)O)N3C2=O)c1 ?
Output: 12

Input: Could you share which clearance value was measured for O=C[C@H](CC(=O)O)NC(=O)[C@@H]1CCCN2C(=O)CC[C@H](NC(=O)c3cccc4ccccc34)C(=O)N12 ?
Output: 23

Input: Could you share which clearance value was measured for COC(=O)N[C@H]1CCC(=O)N2CCC[C@@H](C(=O)N[C@@H](CC(=O)O)C(=O)COC(=O)c3c(Cl)cccc3Cl)N2C1=O ?
Output: 100

Input: Could you share which clearance value was measured for CN(C)c1ccc(C(=O)N[C@H]2CCC(=O)N3CCC[C@@H](C(=O)N[C@H](C=O)CC(=O)O)N3C2=O)cc1 ?
Output: 17

Input: Could you share which clearance value was measured for O=C[C@H](CC(=O)O)NC(=O)[C@@H]1CCCN2C(=O)CC[C@H](NC(=O)C(=O)c3ccccc3)C(=O)N12 ?
Output: 32

Input: Could you share which clearance value was measured for CC(=O)Nc1ccc(C(=O)N[C@H]2CCC(=O)N3CCC[C@@H](C(=O)N[C@H](C=O)CC(=O)O)N3C2=O)cc1 ?
Output: 5.9

Input: Could you share which clearance value was measured for O=C[C@H](CC(=O)O)NC(=O)[C@@H]1CCCN2C(=O)CC[C@H](NC(=O)c3ccc4nc[nH]c4c3)C(=O)N12 ?
Output: 20

Input: Could you share which clearance value was measured for CN(C)c1cccc(C(=O)N[C@H]2CCC(=O)N3CCC[C@@H](C(=O)N[C@H](C=O)CC(=O)O)N3C2=O)c1 ?
Output: 63

Input: Could you share which clearance value was measured for CC(C)C(=O)Nc1ccc(C(=O)N[C@H]2CCC(=O)N3CCC[C@@H](C(=O)N[C@H](C=O)CC(=O)O)N3C2=O)cc1 ?
Output: 15

Input: Could you share which clearance value was measured for O=C[C@H](CC(=O)O)NC(=O)[C@@H]1CCCN2C(=O)CC[C@H](NC(=O)c3ccc(NC(=O)Cc4ccccc4)cc3)C(=O)N12 ?
Output: 37

Input: Could you share which clearance value was measured for O=C[C@H](CC(=O)O)NC(=O)[C@@H]1CCCN2C(=O)CCN(NS(=O)(=O)c3ccccc3)C(=O)N12 ?
Output: 60

Input: Could you share which clearance value was measured for O=C[C@H](CC(=O)O)NC(=O)[C@@H]1CCCN2C(=O)CC[C@H](NC(=O)c3cc4ccsc4s3)C(=O)N12 ?
Output: 54

Input: Could you share which clearance value was measured for Cc1ccccc1C(=O)N[C@H]1CCC(=O)N2CCC[C@@H](C(=O)N[C@H](C=O)CC(=O)O)N2C1=O ?
Output: 24
